tested on: HEK293T-Rex XBP1-RLuc; assay: EC50 for XBP1-RLuc reporter activation; conditions: 18 h
Listed here are molecules together with their documented EC50 for XBP1-RLuc reporter activation.
measuredParameter: EC50 for XBP1-RLuc reporter activation

[[record]]
smilesrepr = "Cc1ccc(O)c(NC(=O)c2cc(-c3ccco3)on2)c1"
result = "> 16.9 µM"

[[record]]
smilesrepr = "O=C(CCc1ccccc1)Nc1ccc(Cl)cn1"
result = "> 17.7 µM"

[[record]]
smilesrepr = "N#Cc1c(NC(=O)/C=C/c2ccco2)sc2c1CCCC2"
result = "> 17 µM"

[[record]]
smilesrepr = "O=C1N/C(=C/c2ccc(O)cc2)C(=O)N1c1cccc(Cl)c1"
result = "3.04 µM"

[[record]]
smilesrepr = "Oc1cccc(/C=N/Nc2ccc(Cl)nn2)c1O"
result = "> 17.9 µM"


---

Listed molecules paired with reported EC50 for XBP1-RLuc reporter activation
test system: HEK293T-Rex XBP1-RLuc; test: EC50 for XBP1-RLuc reporter activation; settings: 18 h
measuredParameter: EC50 for XBP1-RLuc reporter activation

[[record]]
smilesrepr = "COc1cc2ccccc2cc1C(=O)N/N=C/c1cccs1"
measuredparameter = "EC50 for XBP1-RLuc reporter activation"
result = "> 16.9 µM"

[[record]]
smilesrepr = "O=C(NC1CCCC1)c1cc(-c2cccs2)on1"
measuredparameter = "EC50 for XBP1-RLuc reporter activation"
result = "> 16.9 µM"

[[record]]
smilesrepr = "O=C(Nc1ccccc1O)c1cc2ccccc2o1"
measuredparameter = "EC50 for XBP1-RLuc reporter activation"
result = "> 21 µM"

[[record]]
smilesrepr = "N#C/C(=C/c1ccc(O)c(O)c1)c1nc2ccccc2s1"
measuredparameter = "EC50 for XBP1-RLuc reporter activation"
result = "> 16.9 µM"

[[record]]
smilesrepr = "O=C(Nc1ccc(O)cc1)c1c(O)c2c([nH]c1=O)CCCC2"
measuredparameter = "EC50 for XBP1-RLuc reporter activation"
result = "> 16.1 µM"

[[record]]
smilesrepr = "COc1ccc(/C=C(\\C#N)c2nc3ccccc3n2C)cc1"
measuredparameter = "EC50 for XBP1-RLuc reporter activation"
result = "> 16.9 µM"

[[record]]
smilesrepr = "CCC(=O)N(Cc1cc2cc(C)ccc2n2nnnc12)C1CCCC1"
measuredparameter = "EC50 for XBP1-RLuc reporter activation"
result = "> 16.9 µM"

[[record]]
smilesrepr = "O=C(COC(=O)c1cc(O)c(O)c(O)c1)Nc1ccc(Br)cc1F"
measuredparameter = "EC50 for XBP1-RLuc reporter activation"
result = "> 16.9 µM"

[[record]]
smilesrepr = "Cc1cnc(NC(=O)c2sc3nc4c(C)cccc4cc3c2N)s1"
measuredparameter = "EC50 for XBP1-RLuc reporter activation"
result = "6.88 µM"

[[record]]
smilesrepr = "O=c1cc(-c2ccc(O)c(O)c2)oc2ccccc12"
measuredparameter = "EC50 for XBP1-RLuc reporter activation"
result = "> 17.1 µM"

[[record]]
smilesrepr = "C/C(=N\\NC(=O)c1n[nH]c2c1CCCC2)c1ccc(Br)cc1"
measuredparameter = "EC50 for XBP1-RLuc reporter activation"
result = "> 16.9 µM"

[[record]]
smilesrepr = "Nc1ccc(-c2nc3cc(N)c(Cl)cc3[nH]2)cc1"
measuredparameter = "EC50 for XBP1-RLuc reporter activation"
result = "> 14.7 µM"

[[record]]
smilesrepr = "O=C1/C(=C/c2ccc(O)c(O)c2)Oc2cc(O)ccc21"
measuredparameter = "EC50 for XBP1-RLuc reporter activation"
result = "> 16.9 µM"

[[record]]
smilesrepr = "Nc1nc(Nc2ccc(Cl)c(Cl)c2)nc2ccccc12"
measuredparameter = "EC50 for XBP1-RLuc reporter activation"
result = "12.3 µM"

[[record]]
smilesrepr = "O=c1[nH]c(/C=C2\\C=Nc3ccccc32)c(O)n1-c1cccc(Cl)c1"
measuredparameter = "EC50 for XBP1-RLuc reporter activation"
result = "2.18 µM"

[[record]]
smilesrepr = "C/C(=N\\NC(=O)c1n[nH]c2c1CCCC2)c1ccc2ccccc2c1"
measuredparameter = "EC50 for XBP1-RLuc reporter activation"
result = "> 16.9 µM"

[[record]]
smilesrepr = "CC(=O)Nc1ccc2nc(-c3ccc(OC(C)=O)cc3)sc2c1"
measuredparameter = "EC50 for XBP1-RLuc reporter activation"
result = "11.3 µM"

[[record]]
smilesrepr = "O=C(/C=C/c1ccco1)Nc1ccc(Br)cc1Cl"
measuredparameter = "EC50 for XBP1-RLuc reporter activation"
result = "> 16.9 µM"

[[record]]
smilesrepr = "O=C1NC(=Nc2ccc(F)cc2)S/C1=C\\c1ccc(O)c(O)c1"
measuredparameter = "EC50 for XBP1-RLuc reporter activation"
result = "12.4 µM"

[[record]]
smilesrepr = "Cc1ccc(O)c(N/C=C/C(=O)c2ccc(F)cc2)c1"
measuredparameter = "EC50 for XBP1-RLuc reporter activation"
result = "11.9 µM"

[[record]]
smilesrepr = "COc1cccc(-c2nc3ccc(N)cc3[nH]2)c1"
measuredparameter = "EC50 for XBP1-RLuc reporter activation"
result = "> 16.9 µM"

[[record]]
smilesrepr = "CCc1cc2c(=O)c(-c3ccc4c(c3)OCCO4)coc2cc1OC"
measuredparameter = "EC50 for XBP1-RLuc reporter activation"
result = "> 15 µM"

